B1: POU domain, class 4, transcription factor 1, residues 266 to 347; numbered along this chain, Q01851 (parent)
chain: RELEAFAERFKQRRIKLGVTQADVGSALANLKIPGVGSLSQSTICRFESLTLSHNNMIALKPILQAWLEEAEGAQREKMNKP

# Variants of: B1
# PROTOCOL TEXT: abundance fitness (aPCA) (normalised: wild type 0, dead -1); higher = more abundant; growth selection in yeast, the domain comes from the species named
# DETAILS: Homo sapiens
Category key, based on recorded abundance fitness: LOW: < -0.2; MEDIUM: ≥ -0.2 and < -0.04; HIGH: ≥ -0.04

variant_string=I44G category_label=LOW
variant_string=A22N category_label=HIGH
variant_string=R46L category_label=MEDIUM
variant_string=K11G category_label=LOW
variant_string=A66D category_label=HIGH
variant_string=E72V category_label=LOW
variant_string=R13T category_label=HIGH
variant_string=D23A category_label=HIGH
variant_string=R9Y category_label=HIGH
variant_string=V36L category_label=HIGH
variant_string=A59P category_label=LOW
variant_string=E4Q category_label=HIGH
variant_string=E70A category_label=MEDIUM
variant_string=N80S category_label=HIGH
variant_string=G25F category_label=MEDIUM
variant_string=R13V category_label=MEDIUM
variant_string=E2W category_label=LOW
variant_string=D23N category_label=MEDIUM
variant_string=P62N category_label=LOW
variant_string=F10P category_label=LOW
variant_string=L39V category_label=HIGH
variant_string=K32W category_label=MEDIUM
variant_string=T43P category_label=LOW
variant_string=S38P category_label=MEDIUM
variant_string=E70L category_label=MEDIUM
variant_string=F6V category_label=LOW
variant_string=S40M category_label=LOW
variant_string=E8D category_label=MEDIUM
variant_string=S42W category_label=MEDIUM
variant_string=K78S category_label=MEDIUM
variant_string=L39S category_label=LOW
variant_string=E2D category_label=HIGH
variant_string=K78G category_label=HIGH
variant_string=I63T category_label=HIGH
variant_string=M57V category_label=LOW
variant_string=M79P category_label=HIGH
variant_string=V19Q category_label=HIGH
variant_string=A59K category_label=HIGH
variant_string=R13M category_label=HIGH
variant_string=A59L category_label=HIGH
variant_string=G35M category_label=MEDIUM
variant_string=N30M category_label=MEDIUM
variant_string=L60I category_label=LOW
variant_string=R9F category_label=MEDIUM
variant_string=R13E category_label=MEDIUM
variant_string=N55A category_label=HIGH
variant_string=Q41W category_label=MEDIUM
variant_string=I44T category_label=LOW
variant_string=G25E category_label=HIGH
variant_string=A22V category_label=LOW
variant_string=R1W category_label=MEDIUM
variant_string=R9L category_label=HIGH
variant_string=A5T category_label=MEDIUM
variant_string=T20R category_label=MEDIUM
variant_string=E77G category_label=HIGH
variant_string=G25K category_label=HIGH
variant_string=E8N category_label=HIGH
variant_string=L64T category_label=LOW
variant_string=A59M category_label=HIGH
variant_string=A27N category_label=MEDIUM
variant_string=L60G category_label=LOW
variant_string=G73H category_label=MEDIUM
variant_string=A7R category_label=LOW
variant_string=E48A category_label=LOW
variant_string=S40K category_label=MEDIUM
variant_string=G18S category_label=LOW
variant_string=K11P category_label=LOW
variant_string=E77L category_label=MEDIUM
variant_string=I58S category_label=HIGH
variant_string=I15M category_label=HIGH
variant_string=G37Q category_label=MEDIUM
variant_string=L60S category_label=LOW
variant_string=G18M category_label=LOW
variant_string=P82T category_label=HIGH
variant_string=M57E category_label=LOW
variant_string=K61H category_label=LOW
variant_string=S38E category_label=HIGH
variant_string=G25Q category_label=HIGH
variant_string=F10N category_label=LOW
variant_string=A27Q category_label=MEDIUM
variant_string=P34Q category_label=HIGH
variant_string=A74S category_label=HIGH
